tested on: HOP-62; test: NCI tumour cell line growth inhibition, 48 h
Active and inactive are the calls of the source. Cut-off read from the data, not from the text of the source: active = GI50 up to about 1.1 µM and inactive = higher.
OBSERVATION_TYPE: GI50

Examples with their reported GI50 follow.
- MOLECULE: "C[C@@]12CCC3C1C=C1C(=O)c4cc(O)ccc4C(=O)[C@]1(O2)[C@@]3(C)C=O"
  TEST_RESULT: "8.59 µM (inactive)"
- MOLECULE: "CC1C(c2ccc3c(c2)OCO3)c2cc3c(cc2OC1N1CCOCC1)OCO3 (stereo not given)"
  TEST_RESULT: "34.4 µM (inactive)"
- MOLECULE: "CCCNC(=S)NNC(=O)CSc1nc(-c2ccccc2)c(-c2ccccc2)[nH]1"
  TEST_RESULT: "> 100 µM (inactive)"

Provide the documented GI50 with HOP-62 as the system for COc1cc(OCc2ccc3nc(OC)c(OC)nc3c2)cc(OC)c1OC
> 10 µM (inactive)

Provide the documented GI50 with HOP-62 as the system for COc1ccc(OC2OC(COC(c3ccccc3)(c3ccc(OC)cc3)c3ccc(OC)cc3)C(O)C(O)C2O)cc1 (stereo not given)
11.4 µM (inactive)

----------
system: M19-MEL; experiment: NCI tumour cell line growth inhibition, 48 h
Activity calls are given as the source filed them. Rule as the data show it: active = GI50 up to about 1.1 µM and inactive = higher.
Please answer using one outcome listed in active, inactive

Previously resolved entries follow.
- COMPOUND: "COc1ccc(/C=C/c2cc(OC)cc(OC)c2)cc1 [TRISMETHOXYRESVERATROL]"
  DISCRETE_LABEL: "inactive"
- COMPOUND: "Cc1nc(-n2nc(-c3ccccc3)cc2-c2ccccc2)sc1C(/C=C\\c1ccc([N+](=O)[O-])cc1)=N/NC(=S)NN"
  DISCRETE_LABEL: "inactive"
- COMPOUND: "CN(C)c1ccc(/C=c2\\sc3nnc(-c4ccco4)n3c2=O)cc1"
  DISCRETE_LABEL: "inactive"
- COMPOUND: "CCOC(=O)C(=O)CC1=Nc2ccccc2SC(c2cccc(C)c2)C1 (stereo not drawn)"
  DISCRETE_LABEL: "inactive"
- COMPOUND: "CCN(CC)CCNC(=O)c1ccc(C)c(OCc2ccccc2)c1[N+](=O)[O-]"
  DISCRETE_LABEL: "inactive"
- COMPOUND: "COC1CC(OC)C(O)C(CO)O1 (stereo not drawn)"
  DISCRETE_LABEL: "inactive"

GET /call?item= CO[C@H](/C(C)=C/C=C/C(C)=C/c1coc(C)n1)[C@H](C)[C@H]1C[C@@H](O)[C@@]2(C)O[C@H]2/C=C/[C@@H](C)[C@@H]2C[C@@H](CC(=O)O2)C[C@H]2O[C@@H]2C(=O)O1 returns the recorded outcome of this test.
active

GET /call?item= Cc1ccc(NC(=O)CC(=O)n2nc(-c3ccccc3)c(/N=N/c3ccccc3Cl)c2-c2ccccc2)cc1 returns the recorded outcome of this test.
inactive

----------
system: EKVX; assay: NCI tumour cell line growth inhibition, 48 h
Active and inactive are the calls of the source. No stated cut-off is given here; in the data, active = GI50 up to about 1.1 µM and inactive = higher.
Please answer using one outcome listed in 1 for active, -1 for inactive

Previously resolved entries follow.
- COMPOUND: "O=[N+]([O-])c1ccc(C2Nn3c(nnc3-c3cccc([N+](=O)[O-])c3)S2)cc1 (configuration not stated)"
  DISCRETE_LABEL: -1
- COMPOUND: "NCCc1c[nH]c2ccc(OC(=O)C(=O)O)cc12"
  DISCRETE_LABEL: -1
- COMPOUND: "C=CC[P@]1(=O)O[C@H](c2ccccc2)C(C)N1C(C)C (some centres not stated)"
  DISCRETE_LABEL: -1
- COMPOUND: "O=P(O)(O)C1CCCC(P(=O)(O)O)N1 (configuration not stated)"
  DISCRETE_LABEL: -1
- COMPOUND: "CC1(C)CCC2(C(=O)OC3OC(CO)C(O)C(O)C3O)CCC3(C)C(=CCC4C5(C)CCC(OC6OC(CO)C(O)C(O)C6O)C(C)(C)C5CCC43C)C2C1 (configuration not stated)"
  DISCRETE_LABEL: -1
- COMPOUND: "COC(=O)/C=C(\\C(=O)OC)c1c2c3c(cc(OC)c(OC)c3c3ccccc13)CCN2C"
  DISCRETE_LABEL: -1
- COMPOUND: "C/C=C(/CCCCNCCCC)[Si](C)(C)C"
  DISCRETE_LABEL: -1
- COMPOUND: "C=C1CC(C/C=C(\\C)CC2CC(=C)C(=O)O2)OC1=O (configuration not stated)"
  DISCRETE_LABEL: -1
- COMPOUND: "CCN(CC)CC(=O)Nc1ccc2c(c1)C(=O)c1ccc(NC(=O)CN(CC)CC)cc1C2=O"
  DISCRETE_LABEL: -1
- COMPOUND: "O=C1ON(Cc2ccccc2)C(c2ccccc2)N1c1ccccc1 (configuration not stated)"
  DISCRETE_LABEL: -1

GET /call?item= c1ccc(SC2CCSc3ccccc3C2Sc2ccccc2)cc1 (configuration not stated) returns the recorded outcome of this test.
-1

GET /call?item= CCOC(=O)Nc1nn[nH]c1Cl returns the recorded outcome of this test.
-1

GET /call?item= COc1ccc(CCNC(=O)[C@H]2CCCC[C@@H]2CCO)cc1OC returns the recorded outcome of this test.
-1

GET /call?item= [O-]/[N+](=N\c1ccccc1CO)c1ccccc1CO returns the recorded outcome of this test.
-1
